biological target: Small ubiquitin-related modifier 1 (Homo sapiens, UniProt P63165); assay: SUMO1 protein-protein binding blockers, potency – biochemical, FRET, dose response (AID 624383); assay type: functional; settings: read-out: IC50_Mean
Sequence (P63165 whole entry): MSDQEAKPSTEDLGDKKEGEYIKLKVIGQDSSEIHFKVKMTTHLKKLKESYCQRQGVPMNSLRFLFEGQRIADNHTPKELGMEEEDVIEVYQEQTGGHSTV
Active and inactive are the calls of the source.
Assignment: determine reported IC50 for the given molecules.

Guide cases for IC50, answers given:
1) O=C(CSc1nc(-c2ccc(F)cc2)nc2c1Cc1ccccc1O2)Nc1ccc(C(=O)O)cc1 : 3.36 µM (active)
2) CCOc1ccc(NC(=O)CCS(=O)(=O)c2ccc(Br)cc2)cc1 : 12.8 µM (active)
3) O=C(Nc1ccc2c(c1)OCO2)c1cc(-c2ccc(O)cc2)on1 : 11.5 µM (active)

Please examine the following record next.
Under Small ubiquitin-related modifier 1 (Homo sapiens, UniProt P63165), report IC50 for `Cc1c(CC(=O)O)c(=O)oc2c(C)c(OCc3ccc(F)cc3Cl)ccc12`
15.7 µM (active)

---

assay: Luminescence Cell-Based Dose Response HTS to Identify Inhibitors of 5'UTR Stem-Loop Driven Prion Protein mRNA Translation in H4 Neuroglioblastoma Cells. [Related pubchem assays: 1827 (Project Summary), 1813 (Primary HTS)]; format: functional
Active and inactive are the calls of the source.
ASSAY_ENDPOINT: EC50

State the recorded EC50 for every item in the following list.
1. CCOC(=O)c1sc(NC(=O)CNCc2ccccn2)c(C(=O)OCC)c1C
2. COCCCNC(=O)C(=O)Nc1ccc2c(c1)N(S(=O)(=O)c1cccs1)CCC2
3. CCN1C(=O)/C(=C\N2CCN(c3ccc(F)cc3)CC2)SC1=S
4. CCn1nc(C)c(NC(=O)/C=C/c2ccc(OC)c(COc3ccc(Br)cc3)c2)c1C
5. CCN1C(=Cc2sc3ccccc3[n+]2C)C=Cc2cccc(C)c21
6. Cc1ccc(OCc2nnc(SCC(=O)Nc3cccc4ccccc34)n2-c2ccccc2)cc1

1: 9.71 µM (active); 2: 6.86 µM (active); 3: > 120 µM (not active); 4: 23.7 µM (active); 5: 6.43 µM (active); 6: > 120 µM (not active)

Supply EC50 value. Item: `N#Cc1cc2c(=O)n3ccccc3nc2n(-c2ccccc2Cl)c1=O`
> 120 µM (not active)

---

test system: H4; assay: Luminescence Cell-Based Dose Response HTS to Identify Activators of 5'UTR Stem-Loop Driven Prion Protein mRNA Translation in H4 Neuroglioblastoma Cells. [Related pubchem assays: 1829 (Project Summary), 1814 (Primary HTS)]; assay type: functional; settings: Homo sapiens
Activity calls are given as the source filed them.
ASSAY_ENDPOINT: EC50

1) CC(C)(C)c1ccc(OC(=O)N2CCOCC2)cc1 : 1.3 µM (active)
2) O=S(=O)(c1ccc(Cl)cc1)N1c2ccccc2Oc2nc3ccccc3nc21 : > 120 µM (not active)
3) O=C(Nc1cccc(F)c1)Nc1ccc2c(c1)CCC2 : > 120 µM (not active)
4) Cc1cc(N2CCCC2)ccc1/C=C1\NC(=S)N(C)C1=O : 35.5 µM (active)
5) COc1cc(C)ccc1OCCOc1ccccc1Cl : 18.6 µM (active)

State the recorded EC50 for every item in the following list.
1. COC(=O)CSc1nc2ccccn2c(=O)c1C=O
2. Cc1ccnc(NC(=S)NC(=O)/C=C/c2ccco2)c1
3. O=c1c(Cl)c(N/N=C/c2ccc(Cl)cc2)cnn1-c1ccccc1

1: > 120 µM (inconclusive); 2: > 120 µM (not active); 3: > 120 µM (not active)
